Sourced from BindingDB's records for doi:10.1016/j.bmcl.2004.03.096

# MEASUREMENT NOTES: Concentration required against dynamin-1 GTPase activity of sheep brain; increased dynamin I GTPase activity at 30 uM.
MEASURE: IC50

[in] Look up IC50: "CCCC/C=C\C[C@@H](O)/C=C/C=C/C=C\[C@@H](O)CCCC(=O)O"
[out] > 300 µM
